# System Under Test: TPRKB;PRPK (Homo sapiens;Homo sapiens, UniProt Q9Y3C4;Q96S44 1-175;1-253, |)
# Test Description: fluorescence polarization; 20 mM HEPES pH 7.5, 100 mM NaCl, 2 mM DTT; filter binding 50 nM 32P-tRNA, 1 h, room temperature; FP 50 nM 647-CCA; NMR 25 C with 10% D2O
# Study Conditions: protein: recombinant;recombinant; tags: GST removed by TEV;GST-His6 removed by TEV; copies: 1;1; label: 5' Alexa-647; single strand
pKd: −log10 of the molar value.
Experimental Readout: pKd

Binder: CCGCCA (ssRNA) [647-CCA]
Experimental Readout: pKd
Value Reported: 6.35
